Each recorded value in this set is attributed to patent US20080076762A1.

study system: plasmepsin II (Plasmodium falciparum)
Sequence (Q8I6V3 125-453): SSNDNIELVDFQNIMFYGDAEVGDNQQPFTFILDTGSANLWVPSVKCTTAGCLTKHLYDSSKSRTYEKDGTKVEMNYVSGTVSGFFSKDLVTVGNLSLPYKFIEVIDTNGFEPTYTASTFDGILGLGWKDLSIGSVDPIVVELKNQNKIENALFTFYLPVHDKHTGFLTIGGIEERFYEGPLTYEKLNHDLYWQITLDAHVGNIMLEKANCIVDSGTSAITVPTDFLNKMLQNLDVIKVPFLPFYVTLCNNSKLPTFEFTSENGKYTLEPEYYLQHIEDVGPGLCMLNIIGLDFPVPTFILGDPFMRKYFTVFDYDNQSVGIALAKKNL
procedure text: FRET assay for plasmepsin II
Format: biochemical
run conditions: pH 5, 37° C., substrate M-2120 1 μM
Please respond with reported IC50 for every item in the list.
Note: unit nM is implicit; provide only the numeric part.

**Query** Give IC50 for CCCCCc1ccc(C(=O)N(Cc2ccc(-c3cccc(C)c3)cc2)C2CCN(CCC(C)C)CC2)nc1
**Result** 16

**Query** Give IC50 for CCCCCc1ccc(C(=O)N(Cc2ccc(-c3ccc(C(=O)N4CCCCC4)cc3)cc2)C2CCN(CCC(C)C)CC2)nc1
**Result** 10

**Query** Give IC50 for CCCCCc1ccc(C(=O)N(Cc2ccc(N3CCSCC3)nc2)C2CCN(CCC(C)C)CC2)nc1
**Result** 51

**Query** Give IC50 for CCCCCc1ccc(C(=O)N(Cc2ccc(C(=O)NCc3c(F)cccc3F)cc2)C2CCN(CCC(C)C)CC2)nc1
**Result** 40

**Query** Give IC50 for CCCCCc1ccc(C(=O)N(Cc2ccc(-c3ccc(C(=O)N4CCCCC4)cc3)cc2)C2CCN(CCC(C)C)CC2)s1
**Result** 77

**Query** Give IC50 for CCCCCc1ccc(C(=O)N(Cc2ccc(-c3ccc(Cl)c(Cl)c3)o2)C2CCN(CCC(C)C)CC2)cc1
**Result** 41
